The compounds listed here are annotated with their Root Growth.
System: maize (Zea mays, variety "LORENZO")
Experiment: Root growth assay, seed treatment, maize
Type: in vivo
Conditions: 100 g a.i./ha, Root Growth of 100 set as standard (untreated control), wet root weight 16 (±2) days post treatment
# output: bare number, no unit

The examples below pair each entry with its known result.
Cc1ccc(NN=C2C(=O)Nc3ccc(Br)cc32)cc1 [Compound 1.6] | 137
O=C1Nc2ccc([N+](=O)[O-])cc2C1=NNc1ncc(C(F)(F)F)cc1Cl [Compound 1.8] | 48
O=C1Nc2ccc(Br)cc2C1=NNc1c(F)c(F)cc(F)c1F [Compound 1.2] | 567

Problem: Query Root Growth for O=C1Nc2ccc(F)cc2C1=NNc1c(F)c(F)cc(F)c1F [Compound 1.18]
Result: 170

Problem: Query Root Growth for O=C1Nc2ccc(Cl)cc2C1=NNc1cccc([N+](=O)[O-])c1 [Compound 1.10]
Result: 102

Problem: Query Root Growth for Cc1ccc(NN=C2C(=O)Nc3ccc([N+](=O)[O-])cc32)cc1Cl [Compound 1.12]
Result: 114

Problem: Query Root Growth for O=C1Nc2ccc(F)cc2C1=C1Nc2ccccc2C1=NO [Compound 2.7]
Result: 118

Problem: Query Root Growth for O=C1Nc2ccc(Br)cc2C1=NNc1ccc(Cl)cc1 [Compound 1.4]
Result: 99

* * *

Tested on: wheat (Triticum aestivum, variety "TRISO")
Assay: Root growth assay, seed treatment, wheat
Assay type: in vivo
Conditions: 10 g a.i./ha, Root Growth of 100 set as standard (untreated control), wet root weight 16 (±2) days post treatment
REPORTED_ENDPOINT: Root Growth
# output: bare number, no unit

The examples below pair each entry with its known result.
O=C1Nc2ccc(Br)cc2C1=NNc1cc(Cl)cc(Cl)c1 | 117
O=C1Nc2ccc(F)cc2C1=C1Nc2ccccc2C1=NO | 390
O=C1Nc2ccc(Br)cc2C1=NNc1c(F)c(F)cc(F)c1F | 228
NS(=O)(=O)c1ccc(NN=C2C(=O)Nc3ccc(F)cc32)cc1 | 61
CCON=C1C(=C2C(=O)Nc3ccc(Br)cc32)Nc2ccccc21 | 115
O=C1Nc2ccc(I)cc2C1=NNc1ncc(C(F)(F)F)cc1Cl | 93

Okay, next one:
Problem: Query Root Growth for O=C1Nc2ccc(I)cc2/C1=C1/Nc2ccccc2/C1=N\O
Result: 151
